# Tested on: A2780 ovarian carcinoma cell line
# Procedure summary: MTT assay, viability of A2780 cells
# Type: cell-based, human
# Condition info: MTT assay, cells treated daily for 3 days
The following molecules are listed with their measured pIC50 values.
# reply with the number alone; pIC50 is -log10 of concentration in mol/L

# annotated cases, reported pIC50 shown
COc1ccc([C@@H]2Oc3ccccc3[C@@H]3OCCN[C@@H]23)cc1.Cl (racemic) [rac-(4aS*,5R*,10bR*)-2b]
4.98
COc1cc(C2Oc3ccccc3-c3sc(C)nc32)cc(OC)c1OC (racemic)
5.57
CCOC(=O)c1c(C)[nH]c2c1-c1ccccc1OC2c1ccc(OC)c(OC)c1 (racemic)
5.27

Continue with the next molecule.
Reported pIC50, molecule CCOC(=O)c1c(C)[nH]c2c1-c1ccccc1OC2c1ccc(OC)cc1 (racemic) : ____
5.32

The values you see were collected from paper PMC7593906.
